Target: ligand binding domain of human FXR (Homo sapiens (Human), UniProt Q96RI1)
Sequence (Q96RI1 262-486): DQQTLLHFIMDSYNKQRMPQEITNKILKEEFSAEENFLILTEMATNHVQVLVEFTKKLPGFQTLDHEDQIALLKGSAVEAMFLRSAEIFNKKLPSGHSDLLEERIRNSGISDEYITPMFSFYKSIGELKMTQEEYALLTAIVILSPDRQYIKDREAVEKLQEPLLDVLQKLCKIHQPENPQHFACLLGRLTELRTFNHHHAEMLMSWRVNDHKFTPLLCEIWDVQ
Assay: FXR ligand binding assay (LanthaScreen TR-FRET, SRC2-2 peptide recruitment)
Conditions: -log EC50, concentration required to produce 50% activation
quantity-measured: pEC50

# mol-smiles, assay-target, quantity-measured, assay-result
rows = [
    ("CS(=O)(=O)CCNC(=O)c1ccc(N2C[C@@H]3C[C@H]2C[C@H]3OCc2c(-c3c(Cl)cccc3Cl)noc2C2CC2)cc1F", "ligand binding domain of human FXR (Homo sapiens (Human), UniProt Q96RI1)", "pEC50", 9.4),
    ("O=C(O)c1cc(OC(F)(F)F)c2nc(N3C[C@@H]4C[C@H]3C[C@H]4OC(=O)c3c(-c4c(Cl)cccc4Cl)noc3C3CC3)sc2c1", "ligand binding domain of human FXR (Homo sapiens (Human), UniProt Q96RI1)", "pEC50", 7.7),
    ("Cc1cccc(C)c1-c1noc(C2CC2)c1CO[C@@H]1C[C@@H]2C[C@H]1CN2c1ccc(C(=O)O)cc1F", "ligand binding domain of human FXR (Homo sapiens (Human), UniProt Q96RI1)", "pEC50", 8.6),
    ("Cc1cccc(F)c1-c1noc(C2CC2)c1CO[C@@H]1C[C@@H]2C[C@H]1C(=O)N2c1ccc(C(=O)O)cc1", "ligand binding domain of human FXR (Homo sapiens (Human), UniProt Q96RI1)", "pEC50", 7.4),
    ("O=C(O[C@@H]1C[C@@H]2C[C@H]1CN2c1ccc(-c2nn[nH]n2)cc1F)c1c(-c2c(Cl)cccc2Cl)noc1C1CC1", "ligand binding domain of human FXR (Homo sapiens (Human), UniProt Q96RI1)", "pEC50", 6.7),
    ("CCc1cc(N2C(=O)[C@@H]3C[C@H]2C[C@H]3OCc2c(-c3c(Cl)cccc3Cl)noc2C2CC2)ccc1C(=O)O", "ligand binding domain of human FXR (Homo sapiens (Human), UniProt Q96RI1)", "pEC50", 7.2),
]
